test: in vitro; assay type: cell-based; conditions: human, MRC-5 cells
Where no end group is shown, it is not given here.
Assay Endpoint: viability at 144 h (%)

>>> recorded_value("PHPFHLFVY-OH [Renin inhibitor]")
100

Values compiled from patent US20100204142A1.
